tested on: human SKM-1 acute myeloid leukemia cells; assay: SKM-1 antiproliferation cell-based assay (ATPlite); details: Homo sapiens, SKM-1, 96 h, SKM-1 antiproliferation assay, 4 days, Table C2
attribute-measured: GI50

Consider the molecule shown here: [2H]C([2H])([2H])n1ccn(-c2ccc(-c3cc(F)cc(-c4ccnc(N5CC[C@H](N)C5)c4)c3O)cc2Cl)c1=O What is its recorded GI50? 0.3 to 30 nM

Returns the measured GI50 for the input molecule. Input: CC1=CCN(c2ccc(-c3cccc(-c4ccnc(N5CCNCC5)c4)c3O)cc2Cl)C1=O 30 to 300 nM

If you can, please state the reported GI50 value of Cn1ccn(-c2ccc(-c3cc(F)cc(-c4ccnc(N5CCC[C@@H](O)C5)c4)c3O)cc2Cl)c1=O . 30 to 300 nM

// lookup GI50 for Cn1ccn(-c2ccc(-c3cc(F)cc(-c4cnnc(N5CCN(C(C)(C)C)CC5)c4)c3O)cc2Cl)c1=O 0.3 to 30 nM

What value of GI50 has been recorded for this entry: CC(=O)Nc1ccc(-c2cccc(-c3cc(OC4CCC(O)CC4)nc(N4CCNCC4)c3)c2O)cc1F (centres unmarked) 30 to 300 nM

---
Given the entry O=C1CCCN1c1ccc(-c2cccc(-c3ccnc(N4CC5(CNC5)C4)c3)c2O)cc1Cl , report its measured GI50. 300 to 3000 nM

GET /values?readout=GI50&item= Cc1cc(-c2ccnc(N3CCNCC3)c2)c(O)c(-c2ccc(N3CCN(C)C3=O)c(Cl)c2)c1 30 to 300 nM

Consider the molecule shown here: COc1cc(-c2cccc(-c3ccc(NC(C)=O)c(F)c3)c2O)cc(N2CCNCC2)n1 What is its recorded GI50? 300 to 3000 nM

Sample Cn1ccn(-c2ccc(-c3cc(F)cc(-c4ccnc(N5CCN(C6CCC6)CC5)c4)c3O)cc2Cl)c1=O — what was its GI50? 0.3 to 30 nM

Could you share which GI50 value was measured for CN1CCN(c2ccc(-c3cc(F)cc(-c4cc(N5CC[C@H](N)C5)c(=O)n(C)c4)c3O)cc2Cl)C1=O ? 30 to 300 nM

Could you tell me which GI50 is on file for CNCc1n[nH]c2ccc(-c3cc(F)cc(-c4ccc(-n5ccn(C)c5=O)c(Cl)c4)c3O)cc12 ? 30 to 300 nM

----------
target: human BRD4 bromodomain II (Homo sapiens); construct: human BRD4 bromodomain II [based on Genbank NM_058243, residues 349-460]; host or cells: E. coli; test: Bromodomain binding assay (AlphaScreen), BRD4 BDII; conditions: BRD4 BDII AlphaScreen assay; read-out: BRD4 BD2 IC50
pIC50: −log10 of the molar value.
Listing: pIC50 of selected molecules

Some solved entries appear below for comparison.
// returns reported pIC50 for input Cc1cc(-c2ccc(-n3ccn(C)c3=O)c(Cl)c2)c(O)c(-c2ccnc(N3CCN(C(C)(C)C)CC3)c2)n1 [Example 998] 8.00 to 9.00

What does the data say about its pIC50? Entry: Cc1cc(-c2ccc(-n3ccn(C)c3=O)c(Cl)c2)c(O)c(-c2cc(Cl)c(F)c(N3CCN(C(C)(C)C)CC3)c2)n1 [Example 1010] 9.00 to 11.00

Continuing:
// query pIC50 value for entry Cn1ccn(-c2ccc(-c3cc(F)cc(-c4cccc(N5CCN(C6CCC6)CC5)c4)c3O)cc2Cl)c1=O [Example 868] 8.00 to 9.00

Query: pIC50; subject: CC(C)c1cc(-c2cc(F)cc(-c3cccc(N4CCN(C(C)(C)C)CC4)c3)c2O)cc(Cl)c1-n1ccn(C)c1=O [Example 932] < 7.00

# lookup: pIC50 of Cn1ccn(-c2ccc(-c3cc(F)cc(-c4cccc(N5CCCN(C(C)(C)C)CC5)c4)c3O)cc2Cl)c1=O [Example 851] 8.00 to 9.00

Need pIC50 of CC(C)(C)N1CCN(c2cccc(-c3cc(F)cc(-c4ccc(-n5cc[nH]c5=O)c(Cl)c4)c3O)c2)CC1 [Example 928] , thanks. 8.00 to 9.00

What pIC50 value was documented for this molecule, Cc1cc(-c2ccc(-n3ccn(C)c3=O)c(Cl)c2)c(O)c(-c2ccc(F)c(N3CCN(C(C)(C)C)CC3)c2)n1 [Example 1000] ? 8.00 to 9.00

Endpoint output: pIC50 of Cn1ccn(-c2ccc(-c3cc(F)cc(-c4ccnc(N5CC(F)(F)[C@@](C)(O)C5)c4)c3O)cc2Cl)c1=O [Example 881] . Value? 9.00 to 11.00

Returns the measured pIC50 for the input molecule. Input: CC(=O)Nc1cccc(-c2cc(F)cc(-c3cccc(N4CCC(C)(O)C4)c3)c2O)c1Cl (centres unmarked) [Example 893] < 7.00

Return reported pIC50; argument: CC(C)N1CCC12CCN(c1cc(-c3cc(F)cc(-c4ccc(-n5ccn(C)c5=O)c(Cl)c4)c3O)cnc1N)C2 (centres unmarked) [Example 954] 8.00 to 9.00

Please look up its pIC50: Cn1ccn(-c2ccc(-c3cc(F)cc(-c4cccc(-c5ccc(O)cc5)c4)c3O)cc2Cl)c1=O [Example 857] 7.00 to 8.00

----------
target: human BRD4 bromodomain II (Homo sapiens, UniProt O60885); construct: human BRD4 bromodomain II [based on Genbank NM_058243, residues 349-460]; host or cells: E. coli; assay: Bromodomain binding assay (AlphaScreen), BRD4 BDII; settings: AlphaScreen assay, Table C2; read-out: BRD4 BDII IC50
attribute-measured: IC50

Answered cases to consult:
Item Cn1ccn(-c2ccc(-c3cc(F)cc(-c4ccnc(N5CC(N)C6(CC6)C5)c4)c3O)cc2Cl)c1=O (centres unmarked) with human BRD4 bromodomain II (Homo sapiens, UniProt O60885) - IC50? 0.01 to 1 nM

Give IC50 (human BRD4 bromodomain II (Homo sapiens, UniProt O60885)) of the following molecule: Cn1ccn(-c2ccc(-c3cc(F)cc(-c4ccnc(N5CCNCCC5=O)c4)c3O)cc2Cl)c1=O 0.01 to 1 nM

Record COc1cc(-c2cccc(-c3ccc(NC(C)=O)cc3)c2O)ccc1NC(C)=O : what is its IC50 with human BRD4 bromodomain II (Homo sapiens, UniProt O60885)? 10 to 100 nM

Next:
What value of IC50 on human BRD4 bromodomain II (Homo sapiens, UniProt O60885) does CN1CCN(c2ccc(-c3cc(F)cc(-c4ccnc(N5CCC[C@H](N)C5)c4)c3O)cc2Cl)C1=O have? 1 to 10 nM

Given the entry CN[C@H]1CCN(c2cc(-c3cc(F)cc(-c4ccc(N5CCN(C)C5=O)c(Cl)c4)c3O)ccn2)C1 , what IC50 was observed with human BRD4 bromodomain II (Homo sapiens, UniProt O60885)? 1 to 10 nM

----------
target: human BRD4 bromodomain II (Homo sapiens); construct: human BRD4 bromodomain II [based on Genbank NM_058243, residues 349-460]; host or cells: E. coli; assay: Bromodomain binding assay (AlphaScreen), BRD4 BDII; settings: AlphaScreen assay, Table C2; read-out: BRD4 BDII IC50
Each entry below carries its reported IC50.

Record request: IC50 value, item CC(=O)Nc1ccc(-c2cccc(-c3cccc(C(F)(F)F)c3)c2O)cc1F > 100 nM

What does the data say about its IC50? Entry: Cc1cc(-c2cncc(N3CC[C@H](N)C3)c2)c(O)c(-c2ccc(-n3ccn(C)c3=O)c(Cl)c2)c1 1 to 10 nM

# get_value(readout='IC50', item= CCc1cccc(-c2cccc(-c3ccc(NC(C)=O)c(F)c3)c2O)c1 ) > 100 nM

Look up IC50 for this molecule: C[C@@H]1CN(c2cncc(-c3cccc(-c4ccc(N5CCCC5=O)c(F)c4)c3O)c2)CCN1 1 to 10 nM

Field request: IC50 | item: Cn1ccn(-c2ccc(-c3cc(F)cc(-c4cc(N5CCC(N)CC5)c5cn[nH]c5c4)c3O)cc2Cl)c1=O 0.01 to 1 nM

***
Recorded IC50 for CC(=O)Nc1ccc(-c2cccc(-c3cc(N4CCNCC4)ccn3)c2O)cc1F , please? > 100 nM

For CC(=O)Nc1ccc(-c2cccc(-c3ccnc(N4CCC(CO)C4)c3)c2O)cc1F (stereo not shown) , what is its reported IC50? 1 to 10 nM

Taken from patent US20250179059A1.
